Each recorded value in this set is attributed to paper PMC12864922.

Target: TDP-43 (Homo sapiens, UniProt Q13148 1-414)
Sequence (Q13148 whole entry): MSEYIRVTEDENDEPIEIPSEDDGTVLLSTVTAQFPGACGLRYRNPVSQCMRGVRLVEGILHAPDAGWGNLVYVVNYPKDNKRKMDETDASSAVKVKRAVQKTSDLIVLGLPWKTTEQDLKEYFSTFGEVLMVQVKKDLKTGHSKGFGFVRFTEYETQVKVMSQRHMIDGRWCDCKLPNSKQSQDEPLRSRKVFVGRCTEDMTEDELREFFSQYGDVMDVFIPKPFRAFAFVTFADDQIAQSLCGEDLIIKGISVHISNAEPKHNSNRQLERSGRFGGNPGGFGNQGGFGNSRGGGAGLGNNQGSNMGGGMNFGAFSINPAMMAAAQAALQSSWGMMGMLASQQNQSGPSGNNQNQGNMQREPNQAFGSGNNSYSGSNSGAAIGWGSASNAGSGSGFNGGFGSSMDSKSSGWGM
Assay: RNA Bind-n-Seq with designed 260-mer pool; 25 mM Tris-HCl, 150 mM KCl, 3 mM MgCl2, BSA (printed 500 mg/mL), 20 units/mL SUPERase IN; pH not stated; 500 nM RNA pool, 1 h, 4 C; TDP-43 5, 50, 500 nM; high values mean tight binding
Conditions: protein: recombinant; tags: SBP (GST cleaved off with PreScission; pGEX-GST-SBP)
In all, about 9,900 sequences were measured (“r (bound/input frequency ratio)”: median about 0.7, highest 2% from about 6.5 on). The entries come from a sample that favours the highest values as a whole.
OBSERVED PROPERTY: binding signal

Please review the following examples before continuing.
[[record]]
binder = "ENSMUSG00000043670.283|Diras1 (ssRNA) RNA: GGGAGUUCUACAGUCCGACGAUCGCUUCGAUAUCCGCAUGCUAGAGAGGGAGGGAGAGUGGGAGGUAGAAUGAGAGAGAGUGUGUAUUGGAAGGGAGAGAGAGAGUGUGAGAGAGUGUGAGAGAGAGACAGAGACAGAGAUAAAGGAGAUAAAGAGAGACAAAGACAUGGUCACAAAGAGACAGAGAAGCAGAAAGAAGGCUGAAGCCAGAUGACCAAGUAGGCCGGACCCCACUGUGUUCCCUUCUGUGUGCCAGGCACAGGGAGAGCCACAGCCUGAAGCCUGAGUCUGAGCAUAGCUGAGCUCUUGCGGUCGCACUAGUGUGGAAUUCUCGGGUGUCAAGG"
recorded_value = "4.07 R (bound/input frequency ratio)"

[[record]]
binder = "ENSMUSG00000058297.287|Spock2 (ssRNA) RNA: GGGAGUUCUACAGUCCGACGAUCGCUUCGAUAUCCGCAUGCUAAGAGAGAGAGAGAGAGAGAGAGAGAGAGAGAGAGAGAAAGAGAGAGAGAAUGAGAGAGAAUGAGAGAGAGAAUACCCGAGGGCCACCCUGAUGCCCAGGAAGAGUGAGGGCAGCCCCCUGUGUGGUGGAAGAGGCUGGGCAGCUAGCUACUGGGGACCUUGUGCUGAGGCUUCCAGGACAAAGCCCCAGUCUGGCUCUCCCCCAGCCUCUCAGGGGCACUGGCUGGUCACAUCCACUGAGUAUUGAUCGGUUGGACUUUACUCUUGCGGUCGCACUAGUGUGGAAUUCUCGGGUGUCAAGG"
recorded_value = "7.5 R (bound/input frequency ratio)"

[[record]]
binder = "ENSMUSG00000058297.109|Spock2|57:62 (ssRNA) RNA: GGGAGUUCUACAGUCCGACGAUCGCUUCGAUAUCCGCAUGCUAUGUACACACAGCAAGGCUUACUAUCCGUCUCCUGACAUCCGAAGAGCUCGUCGCAGCACACACUAAUGGCCCUUGGGCUGCACGUGGUUAAGCAUAGCUGUCUCUGUGGCCCAACACAAAGAGGUAAACUUACUUAAAACACAGGGGUUUUGUUGCUGUUUGUUUUUUGUUAGUUUGUUUGUUGAUAAUUGGAUUGAGGAGUUAAUCCUCUGUCACAAUGUCAAAAGCAUGGACAUCCCUGAUAGAUUAUCUCUCAACCUCUCUUGCGGUCGCACUAGUGUGGAAUUCUCGGGUGUCAAGG"
recorded_value = "1.85 R (bound/input frequency ratio)"

[[record]]
binder = "ENSMUSG00000058297.523|Spock2 (ssRNA) RNA: GGGAGUUCUACAGUCCGACGAUCGCUUCGAUAUCCGCAUGCUAUGGGUGGGCACAGGUCUGCCUUGCUCCAGCCCCCUCCCUUGGUUUCUGUUGGUACCCAUUUGGCUUUUAUCUGCUUUCUGCUUCACCACUAAGUGCGUAGGUGGGGUCUUUUGAUAUCGGCUCCCCAAAGCCCAAGCCCACAGCCCUAGGAGAGAACCAGGGGCCCAUCUUUGACACCUGGGCCAUCACGAGCCCUCCCGCCUGCAGUUGUCCUAGGGAAAGACCUGGGGGUGCAAAAGGAGAUUCAAGACAUCCGUACCCUCUUGCGGUCGCACUAGUGUGGAAUUCUCGGGUGUCAAGG"
recorded_value = "0.928 R (bound/input frequency ratio)"

[[record]]
binder = "ENSMUSG00000022095.187|Fam160b2 (ssRNA) RNA: GGGAGUUCUACAGUCCGACGAUCGCUUCGAUAUCCGCAUGCUAAGGCCUGCAGUUGUUGGCUUCCCUCCUGGGCAAGGAGGAGCAGGCCAGAGCCCCUUUUGCUUCCUUUUCCUGCCCAUGCCACCUCUCGAAGCCGGGCACAGGUUGCCAGGAGGUGACAUGAAAGAGGAGGAAACUCCAUGACCUCUACAUCCCCCGCAGUCCUCCCAGCGGGGGAGGACUUCUCUGCUGCUCCGAAGAACAUCAUGCACUCCUGUGUGUGUGUGUGAGUGUGUGUGUGUGUGUGUGUGUGUGUGUGUGUGCUCUUGCGGUCGCACUAGUGUGGAAUUCUCGGGUGUCAAGG"
recorded_value = "6.28 R (bound/input frequency ratio)"

[[record]]
binder = "ENSMUSG00000043670.134|Diras1 (ssRNA) RNA: GGGAGUUCUACAGUCCGACGAUCGCUUCGAUAUCCGCAUGCUACCUGGCCACCCCGAGUACCACCUCUGGAAUAGCAGACGCCCACAGCACAAGCCCAGGACUGUCCCUUCAGGGGAGGCACACUGGAACCCUGAACUUGGAGUGUGGAGUGGCUGCCUGGACACUGCCCACCUGGACACCAGCCUUCUGCUGAGAUAGAGACCUUGGCACAGUGGCACCUCGACAGCCACCCCGACUGGGGGUUUGGGGUGCUGAGGGUGGGGUGCCCAGCUGAGAGUCUAUCAGCAAAGUCCCUGUGUGCGCUCUUGCGGUCGCACUAGUGUGGAAUUCUCGGGUGUCAAGG"
recorded_value = "0.868 R (bound/input frequency ratio)"


Which binding signal is listed for ENSMUSG00000022095.188|Fam160b2 (ssRNA) RNA: GGGAGUUCUACAGUCCGACGAUCGCUUCGAUAUCCGCAUGCUAGCAGUUGUUGGCUUCCCUCCUGGGCAAGGAGGAGCAGGCCAGAGCCCCUUUUGCUUCCUUUUCCUGCCCAUGCCACCUCUCGAAGCCGGGCACAGGUUGCCAGGAGGUGACAUGAAAGAGGAGGAAACUCCAUGACCUCUACAUCCCCCGCAGUCCUCCCAGCGGGGGAGGACUUCUCUGCUGCUCCGAAGAACAUCAUGCACUCCUGUGUGUGUGUGUGAGUGUGUGUGUGUGUGUGUGUGUGUGUGUGUGUGUAUGUGCUCUUGCGGUCGCACUAGUGUGGAAUUCUCGGGUGUCAAGG ?
7.09 R (bound/input frequency ratio)
